Reported values of Granzyme A secretion, CD8 T cells, at 0.01 µM for individual entries
- TESTED SYSTEM: T1, IL10Rα/IL2Rγ receptor (human) (UniProt Q13651)
- T1 sequence (looked up) 1: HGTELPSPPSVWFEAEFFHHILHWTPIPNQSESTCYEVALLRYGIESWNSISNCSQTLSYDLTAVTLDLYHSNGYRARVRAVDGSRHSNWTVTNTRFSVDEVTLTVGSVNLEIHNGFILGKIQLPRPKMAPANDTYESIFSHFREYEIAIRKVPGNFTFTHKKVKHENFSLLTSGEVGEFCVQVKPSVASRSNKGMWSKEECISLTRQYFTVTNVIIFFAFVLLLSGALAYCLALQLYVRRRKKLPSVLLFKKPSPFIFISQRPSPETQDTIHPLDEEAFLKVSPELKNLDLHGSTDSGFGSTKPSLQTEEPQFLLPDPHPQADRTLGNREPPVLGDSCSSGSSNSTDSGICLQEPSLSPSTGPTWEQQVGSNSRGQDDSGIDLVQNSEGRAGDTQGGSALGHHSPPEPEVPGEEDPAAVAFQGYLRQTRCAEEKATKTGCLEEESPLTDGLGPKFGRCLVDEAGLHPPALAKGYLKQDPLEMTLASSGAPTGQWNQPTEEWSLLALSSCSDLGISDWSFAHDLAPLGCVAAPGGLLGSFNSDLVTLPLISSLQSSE
- T1 sequence (looked up) 2: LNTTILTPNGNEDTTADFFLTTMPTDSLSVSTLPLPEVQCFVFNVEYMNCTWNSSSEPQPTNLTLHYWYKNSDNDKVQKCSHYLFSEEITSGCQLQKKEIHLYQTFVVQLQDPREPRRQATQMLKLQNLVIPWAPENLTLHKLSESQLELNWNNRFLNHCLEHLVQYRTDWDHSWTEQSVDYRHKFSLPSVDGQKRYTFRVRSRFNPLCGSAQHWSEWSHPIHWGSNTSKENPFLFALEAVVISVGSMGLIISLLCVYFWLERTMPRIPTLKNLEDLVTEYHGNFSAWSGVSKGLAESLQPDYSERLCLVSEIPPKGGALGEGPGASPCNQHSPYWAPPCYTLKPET
- ASSAY COMMENT: cell-based or functional assay
Write the answer as a number in pg/mL, unit excluded.

A selection of reference data follows.
BINDER | UNIT SPEC | READING
hIL10Ra_VHH14 - hIL2Rg_VHH19, linker …, tag his (bispecific antibody, not shown: small tags and cut ends) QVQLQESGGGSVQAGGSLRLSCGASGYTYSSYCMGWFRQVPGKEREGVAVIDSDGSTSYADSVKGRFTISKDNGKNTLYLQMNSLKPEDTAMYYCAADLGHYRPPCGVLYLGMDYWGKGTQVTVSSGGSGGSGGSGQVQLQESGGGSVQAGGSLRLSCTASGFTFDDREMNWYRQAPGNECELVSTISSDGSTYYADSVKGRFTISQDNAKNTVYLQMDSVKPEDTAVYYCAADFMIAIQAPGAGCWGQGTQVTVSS | pg/mL | 28100
hIL10Ra_VHH14 - hIL2Rg_VHH19, No linker, tag his (bispecific antibody, not shown: small tags and cut ends) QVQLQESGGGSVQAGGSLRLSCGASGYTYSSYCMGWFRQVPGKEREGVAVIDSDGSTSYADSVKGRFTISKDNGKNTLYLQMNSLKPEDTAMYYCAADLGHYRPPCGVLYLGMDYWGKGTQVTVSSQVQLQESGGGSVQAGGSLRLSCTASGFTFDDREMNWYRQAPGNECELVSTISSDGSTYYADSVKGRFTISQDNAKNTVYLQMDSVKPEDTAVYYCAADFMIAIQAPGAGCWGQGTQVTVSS | pg/mL | 22200

We now examine a further binder.
Prompt: Can you share its Granzyme A secretion, CD8 T cells, at 0.01 µM? I mean this binder: hIL10Ra_VHH14 - hIL2Rg_VHH19, linker GGGSGGGS, tag his (bispecific antibody, not shown: small tags and cut ends) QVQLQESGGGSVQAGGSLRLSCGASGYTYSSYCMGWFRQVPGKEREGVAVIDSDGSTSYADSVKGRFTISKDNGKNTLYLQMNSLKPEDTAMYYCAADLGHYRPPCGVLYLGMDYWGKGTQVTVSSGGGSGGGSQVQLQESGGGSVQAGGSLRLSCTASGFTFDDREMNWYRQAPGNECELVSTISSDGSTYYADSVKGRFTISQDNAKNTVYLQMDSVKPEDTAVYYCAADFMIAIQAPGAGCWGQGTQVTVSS
Completion: 22700
